TGT: MMP-1 (Homo sapiens)
Sequence (P03956 100-469): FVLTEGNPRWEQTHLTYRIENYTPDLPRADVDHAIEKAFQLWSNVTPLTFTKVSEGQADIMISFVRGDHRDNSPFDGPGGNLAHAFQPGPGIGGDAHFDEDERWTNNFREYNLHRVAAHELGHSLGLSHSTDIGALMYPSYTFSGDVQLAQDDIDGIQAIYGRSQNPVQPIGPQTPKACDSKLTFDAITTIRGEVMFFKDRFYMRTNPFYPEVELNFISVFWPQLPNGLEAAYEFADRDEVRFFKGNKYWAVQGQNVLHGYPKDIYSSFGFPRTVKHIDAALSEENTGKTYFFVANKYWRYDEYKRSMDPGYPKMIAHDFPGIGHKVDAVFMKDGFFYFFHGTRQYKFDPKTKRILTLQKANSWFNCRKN
pIC50: −log10 of the molar value.
I would appreciate it if you labelled entries label 1 when pIC50 is 5 or higher, otherwise label 0.

>>> print(df.to_string())
                                   compound  label_value
0  Cc1ccc2nnn(C[C@@H]3CC[C@H](C(=O)c4ccc(OCc5cccc(OC(F)(F)F)c5)cc4)[C@H]3C(=O)O)c(=O)c2c1 (racemic)      label 0
1  Cc1ccc2nnn(C[C@@H]3CC[C@H](C(=O)c4ccc(OCc5cccc(C(F)(F)F)c5)cc4)[C@H]3C(=O)O)c(=O)c2c1 (racemic)      label 0
2  O=C(O)[C@H]1[C@H](Cn2nnc3ccccc3c2=O)CC[C@@H]1C(=O)c1ccc(OCc2ccc(F)cc2)cc1 (racemic)      label 1
3  O=C(O)[C@@H]1[C@@H](Cn2nnc3ccc(C(F)(F)F)cc3c2=O)CC[C@H]1C(=O)c1ccc(SCc2ccccc2)cc1 (single isomer, unassigned)      label 0
4  Cc1cccc(COc2ccc(C(=O)[C@@H]3CC[C@H](Cn4nnc5ccc(C(F)(F)F)cc5c4=O)[C@H]3C(=O)O)cc2)c1 (single isomer, unassigned)      label 1
5  O=C(O)[C@@H]1[C@@H](Cn2nnc3ccc(C(F)(F)F)cc3c2=O)CC[C@H]1C(=O)c1ccc(SCc2ccc(Cl)c(Cl)c2)cc1 (single isomer, unassigned)      label 1
6  O=C(O)[C@H]1[C@H](Cn2nnc3ccc(C(F)(F)F)cc3c2=O)CC[C@@H]1C(=O)c1ccc(OCCCc2ccccc2)cc1 (racemic)      label 0
7  Cc1cccc(COc2ccc(C(=O)[C@H]3CC[C@@H](Cn4nnc5ccc(C)cc5c4=O)[C@@H]3C(=O)O)cc2)c1 (racemic)      label 0

---

TGT: MMP-14 (Homo sapiens, UniProt P50281)
# TRUE = IC50 below 800 nM (exclusive); FALSE = IC50 at/above 800 nM

>>> print(df.to_string())
                                   compound  label_value
0  COc1cccc(COc2ccc(C(=O)[C@H]3CC[C@@H](Cn4nnc5ccc(C)cc5c4=O)[C@@H]3C(=O)O)cc2)c1 (racemic)         TRUE
1  O=C(O)[C@H]1[C@H](Cn2nnc3ccccc3c2=O)CC[C@@H]1C(=O)c1ccc(OCc2cccc(Cl)c2)cc1 (racemic)         TRUE
2  Cc1cccc(COc2ccc(C(=O)[C@H]3CC[C@@H](Cn4nnc5ccc(C)cc5c4=O)[C@@H]3C(=O)O)cc2)c1 (racemic)        FALSE
3  O=C(O)[C@@H]1[C@@H](Cn2nnc3ccc(C(F)(F)F)cc3c2=O)CC[C@H]1C(=O)c1ccc(SCc2ccccc2)cc1 (single isomer, unassigned)        FALSE
4  Cc1ccc2nnn(C[C@@H]3CC[C@H](C(=O)c4ccc(OCc5cccc(Cl)c5)cc4)[C@H]3C(=O)O)c(=O)c2c1 (racemic)         TRUE
5  O=C(O)[C@H]1[C@H](Cn2nnc3ccc(C(F)(F)F)cc3c2=O)CC[C@@H]1C(=O)c1ccc(SCc2ccc(Cl)c(Cl)c2)cc1 (racemic)        FALSE
6  O=C(O)[C@H]1[C@H](Cn2nnc3ccc(C(F)(F)F)cc3c2=O)CC[C@@H]1C(=O)c1ccc(OCc2ccccc2)cc1 (racemic)         TRUE
7  O=C(O)[C@H]1[C@H](Cn2nnc3ccc(C(F)(F)F)cc3c2=O)CC[C@@H]1C(=O)c1ccc(OCc2cccc(C(F)(F)F)c2)cc1 (racemic)        FALSE
8  Cc1ccc2nnn(C[C@H]3CC[C@@H](C(=O)c4ccc(OCc5cccc(OC(F)(F)F)c5)cc4)[C@@H]3C(=O)O)c(=O)c2c1 (single isomer, unassigned)         TRUE
